Value source: patent US20260193326A1

- SYSTEM_UNDER_TEST: T1, AAV5 (adeno-associated virus 5)
- T1 construct: also called adeno-associated virus serotype 5
- MEASUREMENT_NOTES: SPR, AAV amine-coupled to CM5 chip;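 also: nanobodies flowed as analyte at seven concentrations spanning 1–100 nM over immobilized AAV (500–800 RU), kinetic constants derived by fitting the binding curves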
ENDPOINT_LABEL: kon (M⁻¹ s⁻¹)
Please respond with the number in M⁻¹ s⁻¹ and leave the unit unwritten.

A4-056 (VHH) VHH: VQLQESGGGLVQPGGSLRLSCAASGSAFSINTMGWYRQAPGKQREKVAAVTRGGSTNYADSVKGRFTISRDNAKNTVYLQMNSLRPEDTAVYYCHVDEVRQSSWTTSNLWGQGTQVTVSS | 10400
A4-079 (VHH) VHH: VQLQESGGGLVQPGGSLRLSCAASGTRFSINTMGWYRQAPGKQRELVANVTPAGSTNYADSVKGRFTISRDNAKNTVYLQMNSLRPEDTAVYYCHVDELRDSSWTTSNLWGQGTQVTVSS | 3930
A4-064 (VHH) VHH: VQLQESGGGLVQSGGSLRLSCAASGRNFSLNTVGWYRQAPGKQRELVATVTSGGGTNYAGSVKGRFTISRDNAKNTVYLQMNSLRPEDTAVYYCHVDEVRESTWTTSNLWGQGTQVTVSS | 5620

Query :: Reported kon, binder A4-062 (VHH) VHH: VQLQESGGGLVQAGGSLRLSCAASGSSFSINAMGWYRQAPGKQRELVATVTRGGTTNYADSVKGRFTISRDNPKNTVYLQMNSLRPEDTAVYYCHLDEVRESSWTTSNLWGQGTQVTVSS : ____
Result :: 157000

Query :: Another binder: A4-069 (VHH) VHH: VQLQESGGGLVQPGGSLRLSCAASGSIFTINSMGWYRQAPGKWRELVATVTRGGNTNYANSVKGRFTISRDNAKNTVYLQMNTLRPEDTAVYYCHLDEVRDSSWTTSNLWGQGTQVTVSS
Result :: 55800

Query :: Please do the same for A4-073 (VHH) VHH: VQLQESGGGLVQPGGSLRLSCAASGSNFSINTMGWYRQAPGKQREMVATVTRGGSTNYGDFVKGRFTISRDNAKNTVYLQMNSLRPEDTAVYYCHVDEIRQSSWTTSNIWGQGTQVTVSS as well.
Result :: 7530

Query :: Also A4-075 (VHH) VHH: VQLQESGGGLVQSGGSLRLSCAASGSMFSLNTMGWYRQAPGKQRELVATITRGGGTNYADSVKGRFTISRDNAKNTVYLQMNSLRPEDTAVYYCHVDELRQSSWTTSNLWGQGTQVTVSS , if possible.
Result :: 29800

Query :: Then this binder: A4-084 (VHH) VHH: VQLQESGGGLVQPGGSLKLSCAASGSRFSLNTMGWYRQAPRKQREFVAAVTRGGNTNYGDFVKGRFTISRDNAKNTVYLQMNSLRPEDTAVYYCHVDELRESSWTTSNLWGQGTQVTVSS
Result :: 165000
